For each entry below, report its viability at 24 h, 31.3 ug/mL value.
- procedure_summary: Cytotoxicity against mouse NIH/3T3 cells assessed as cell viability at 31.3 ug/mL after 24 hrs by MTT assay relative to control
- Format: cell-based, NIH3T3
- test_conditions: read-out: Activity
Give bare numbers, in %.

Consider the following items and state reported viability at 24 h, 31.3 ug/mL for each.
1. C/C(=N\Nc1nc([C@H](C)N)cs1)c1ccc2c(c1)CCC2
2. COc1ccc(O)c(-c2csc(N/N=C/c3ccc4ccccc4c3)n2)c1

Reply:
1: 36.2; 2: 45.3

Quick one: give me viability at 24 h, 31.3 ug/mL for each item below, same order please.
1. COc1ccc(O)c(-c2csc(N/N=C/c3c(-c4ccccc4)nc4scc(C)n34)n2)c1
2. COc1ccc(O)c(-c2csc(N/N=C/c3c[nH]c4ccccc34)n2)c1

Reply:
1: 64.1; 2: 70.6

----------
I'd appreciate it if you could supply MIC values for the items below.
- Tested on: Candida albicans
- procedure_summary: Antifungal activity against caspofungin-resistant Candida albicans assessed as growth inhibition after 24 to 48 hrs by CLSI microbroth dilution method

structure_smiles: OC(Cn1cncn1)(Cn1cncn1)c1ccc(F)cc1F
study_target: Candida albicans
measurement: 0.125 mg/L
--
structure_smiles: COc1ccc(O)c(-c2csc(N/N=C/c3ccc4ccccc4c3)n2)c1
study_target: Candida albicans
measurement: > 16 mg/L

--- query ---
Task item: Reported MIC for Candida albicans, given C/C(=N\Nc1nc([C@@H]2CCCN2)cs1)c1ccc2c(c1)CCC2 ?
Reply: > 16 mg/L

----------
- Tested on: Nakaseomyces glabratus
- procedure_summary: Antifungal activity against voriconazole-resistant Candida glabrata clinical isolate 730 assessed as growth inhibition after 24 to 48 hrs by CLSI microbroth dilution method
- Format: functional
measurement_type: MIC

compound: COc1ccc(O)c(-c2csc(N/N=C/c3cc4ccccc4o3)n2)c1
study_target: Nakaseomyces glabratus
MIC: > 16 µg/mL

compound: COc1ccc(O)c(-c2csc(N/N=C/c3cnc[nH]3)n2)c1
study_target: Nakaseomyces glabratus
MIC: > 16 µg/mL

compound: C/C(=N\Nc1nc([C@@H]2CCCN2C(=O)OCc2ccccc2)cs1)c1ccc2c(c1)CCC2
study_target: Nakaseomyces glabratus
MIC: > 16 µg/mL

compound: C/C(=N\Nc1nc([C@H](Cc2ccccc2)NC(=O)OCc2ccccc2)cs1)c1ccc2c(c1)CCC2
study_target: Nakaseomyces glabratus
MIC: > 16 µg/mL

compound: COc1ccc(O)c(-c2csc(N/N=C/c3ccc4c(c3)OCO4)n2)c1
study_target: Nakaseomyces glabratus
MIC: > 16 µg/mL

I would be grateful if you could provide MIC for each of the following entries.
1. COc1ccc(O)c(-c2csc(N/N=C/c3ccc4ccccc4c3)n2)c1
2. CCC(C)n1ncn(-c2ccc(N3CCN(c4ccc(OCC5COC(Cn6cncn6)(c6ccc(Cl)cc6Cl)O5)cc4)CC3)cc2)c1=O (centres undefined)
3. COc1ccc(O)c(-c2csc(NN=C3CCCCC3)n2)c1
4. C/C(=N\Nc1nc([C@H](Cc2c[nH]c3ccccc23)NC(=O)OCc2ccccc2)cs1)c1ccc2c(c1)CCC2

Reply:
> 16 µg/mL
1 µg/mL
8 µg/mL
8 µg/mL
